- method_summary: Clearance in rat at 0.5 mg/kg, iv
- Assay type: ADME, organism-based
- Parameters: dose 0.5 mg/kg, route intravenous
- test_settings: in vivo

| compound | u | clearance |
| --- | --- | --- |
| O=c1n(CC(F)(F)F)c2cccnc2n1[C@H]1CCCN(c2nccc(-c3ccc(Cl)s3)n2)C1 | mL/min/kg | 7.5 |
| CCn1c(=O)n([C@H]2CCCN(c3cc(-c4ccc(F)cc4)nc(N)n3)C2)c2ncccc21 | mL/min/kg | 4 |
| CCn1c(=O)n(C2CCCN(c3nccc(-c4cc5ccccc5o4)n3)C2)c2ccccc21 (stereo not drawn) | mL/min/kg | 6.67 |
